B1: Caulobacter ParB omega fusion; a variant is named by its letters at X, in order, B8GW30 (parent)
chain: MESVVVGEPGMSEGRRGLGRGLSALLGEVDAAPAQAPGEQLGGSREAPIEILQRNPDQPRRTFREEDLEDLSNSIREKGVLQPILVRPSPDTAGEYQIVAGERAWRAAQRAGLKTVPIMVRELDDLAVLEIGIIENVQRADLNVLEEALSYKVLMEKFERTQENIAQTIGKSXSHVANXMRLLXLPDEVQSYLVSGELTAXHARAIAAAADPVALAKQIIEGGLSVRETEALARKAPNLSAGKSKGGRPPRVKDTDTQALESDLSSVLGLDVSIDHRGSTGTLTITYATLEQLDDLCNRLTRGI

# Variants of: B1
# EXPERIMENT: one-hybrid fitness for binding parS DNA (scaled: cognate 1, non-cognate 0); higher = stronger binding
# EXPERIMENTAL PARAMETERS: with parS DNA site
In all, about 81,000 sequences were measured (“one-hybrid fitness for binding parS DNA”: median about -0.17, highest 2% from about 0.51 on). Only a selection was taken, and the highest values are over-represented in it overall.
REPORTED ENDPOINT: one-hybrid fitness for binding parS DNA

The following variants have reported results that may help.
NFKT | ≤ 0.2
RIWS | 1.05

What value of one-hybrid fitness for binding parS DNA has been reported for the following variant? `RIVQ` ≤ 0.2

Now the variant `NRQA` ≤ 0.2

Now the variant `QQDP` ≤ 0.2

Now the variant `RIKQ` ≤ 0.2

Now the variant `RVLH` 0.229

Now the variant `TNDG` ≤ 0.2
